EXPERIMENT SUMMARY: Cancer cell line cytotoxicity assay (MTS or resazurin, 72 h)
Type: cell-based
EXPERIMENTAL CONTEXT: human, Caco2 cells; Caco2, 72 h incubation
VALUE TYPE: EC50 at 72 h

// EC50 at 72 h lookup, key: CN1C(=O)N[C@H]2[C@@H]3NC(=O)c4cccn4[C@]3(O)C[C@]21O (racemic) [compound 24, 7-hydroxy-13-des-bromo AglA]
> 250 µM

----------
Tested on: Cancer cell lines (MDA-MB-231, MCF7, Caco2, or U87)
EXPERIMENT SUMMARY: Cancer cell line cytotoxicity, span over all cell lines studied
Format: cell-based
EXPERIMENTAL CONTEXT: Homo sapiens; all cell lines studied except Caco-2; read-out: activity against all cell lines studied (span of values)
VALUE TYPE: EC50

// EC50 lookup, key: `CN1C(=O)N[C@H]2[C@@H]3NC(=O)c4ccc([N+](=O)[O-])n4[C@@H]3C[C@]21O`
1.16 to 35.4 µM
